The entries below are paired with their reported % inhibition of IL-6 secretion.
Biological target: Recombinant human Gal3 (rhGal3) (TrueBinding, #QC200361) (human, UniProt P17931 2-250); further: test concentration or dose not given here
Test: cell-based or functional assay
Quantity name: % inhibition of IL-6 secretion

- 13G4.2F8 (antibody, human IgG4 S228P, kappa, V domains shown) VH: QVQLQQPGAELVKPGASVKLSCKASGYTFTSYWMHWVKQRPGQGLEWIGMIHPNSGSTDYNEKFKNKATLNVDKSSSTAYIQLSSLTSEDSAVYYCTRWGIYYYARDYWGQGTTLTVSS VL: DIVMTQSQKFMSTSVGERVSITCKASQNVGTNVAWYQQKAGQSLELLIYGASNRHTGVPDRFTGSGSGTDFTLTITNVQSEDMTNYFCEQYSNFPLTFGAGTKLELKR: 55.1%
- 847.20H7 (antibody, V domains shown) VH: QVQLQQSGAELVRPGASVNLSCKASGYTFTNYWMNWVKQRPGQGLEWVGMIDPSDSETHYNQMFKDKATLTIDKSSSIAYMQLSSLTSEDSAVYYCARWGAMDYWGQGTSVTVSS VL: DIVMTQSHKIMSTSVGDRVSITCKASQDVSTTVAWFQQKPGQSPKLLLYWASTRHTGVPDRFTGSGSGTDYTLTISSVQAEDLALYYCQQHYSPPFTFGSGTKLEIK: -155%
- 847.21B11 (antibody, V domains shown) VH: QVQLKQSGPGLVAPSQSLSITCTVSGFSLTSYGVHWVRQPPGKGLEWLGIIWAGGSTNYNPALMSRLSISKDKSKSQVFLKMNSLKTDDTAMYYCARDRASLLRPGAMDYWGQGTSVTVSS VL: DIVMTQSQKFMSTSVGDRVSVTCKASQNVGINVAWYQQKPGQSPKALIYSASYRYSGVPDRFTGSGSGTDFTLTISNVQSEDLAEYFCQQYNSYPYTFGGGTKLEMK: 27.3%

Origin of values: patent US20250243282A1
